Test system: MCF7 breast
protocol description: NCI tumour cell line growth inhibition, 48 h
recorded metric: TGI

Ask | Look up TGI: O=C1N=C(SC(SC2=NC(=O)C3(NN2)c2ccccc2-c2ccccc23)=C(SC2=NC(=O)C3(NN2)c2ccccc2-c2ccccc23)SC2=NC(=O)C3(NN2)c2ccccc2-c2ccccc23)NNC12c1ccccc1-c1ccccc12
Reply | > 10 µM

Ask | Look up TGI: OCCOCCN1CCN(CCCN2c3ccccc3Sc3ccc(C(F)(F)F)cc32)CC1
Reply | 28.3 µM

Ask | Look up TGI: C[C@@]1(O)C[C@@H](N2C(=O)O[C@@H](c3ccccc3)[C@H]2c2ccccc2)[C@@H]1COCc1ccccc1
Reply | > 100 µM
